Reference source: patent US11524966B1

target: USP28 (His-tagged USP28-FL-mammalian) (Homo sapiens, UniProt Q96RU2); construct: Expression of USP28 (1-1077)-TEV-6*His (pTT5 vector); made in house; host or cells: Expi293f cells (pTT5 vector); experiment: Ubiquitin-Rhodamine 110 Assay for USP28 Activity, Example A-1(a); type: biochemical; details: Ubiquitin-Rhodamine 110 assay, Example A-1(a); read-out: USP28 A-1(a) IC50 range
Sequence (Q96RU2 whole entry): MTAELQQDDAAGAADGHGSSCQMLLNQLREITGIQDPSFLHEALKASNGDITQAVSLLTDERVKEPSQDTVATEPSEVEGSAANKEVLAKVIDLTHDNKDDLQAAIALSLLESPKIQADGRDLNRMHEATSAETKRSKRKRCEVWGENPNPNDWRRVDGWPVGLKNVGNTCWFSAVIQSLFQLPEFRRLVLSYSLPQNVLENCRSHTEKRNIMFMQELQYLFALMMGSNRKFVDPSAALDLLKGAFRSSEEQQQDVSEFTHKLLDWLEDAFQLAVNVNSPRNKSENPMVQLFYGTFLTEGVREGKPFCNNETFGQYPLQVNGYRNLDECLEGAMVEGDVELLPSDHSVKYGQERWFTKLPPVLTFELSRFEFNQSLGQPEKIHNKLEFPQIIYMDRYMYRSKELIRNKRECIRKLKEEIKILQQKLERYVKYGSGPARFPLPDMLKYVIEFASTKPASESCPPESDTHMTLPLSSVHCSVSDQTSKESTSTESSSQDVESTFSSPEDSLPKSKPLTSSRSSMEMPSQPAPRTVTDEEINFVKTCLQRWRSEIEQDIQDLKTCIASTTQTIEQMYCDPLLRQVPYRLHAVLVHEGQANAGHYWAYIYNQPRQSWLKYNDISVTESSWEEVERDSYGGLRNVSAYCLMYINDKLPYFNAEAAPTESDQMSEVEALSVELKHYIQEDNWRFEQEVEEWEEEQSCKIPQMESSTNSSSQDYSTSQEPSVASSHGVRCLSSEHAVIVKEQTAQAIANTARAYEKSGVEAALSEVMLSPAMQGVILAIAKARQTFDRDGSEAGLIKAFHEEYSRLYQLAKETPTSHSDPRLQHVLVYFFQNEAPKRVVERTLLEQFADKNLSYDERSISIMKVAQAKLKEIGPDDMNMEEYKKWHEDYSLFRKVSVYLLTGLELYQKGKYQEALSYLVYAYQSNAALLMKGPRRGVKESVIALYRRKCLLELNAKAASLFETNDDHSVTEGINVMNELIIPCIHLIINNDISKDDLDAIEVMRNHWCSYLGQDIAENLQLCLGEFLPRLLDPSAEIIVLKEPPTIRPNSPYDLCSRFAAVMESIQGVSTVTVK
Let's look at some compounds and their measured IC50.

**Query** // lookup IC50 for Cc1ccn2ncc(C(=O)N[C@H]3COc4cc(N5CCNCC5)ccc4C3)c2c1
**Result** > 2000 nM

**Query** Give the measured IC50 of Cc1cc(C)c2c(N)c(C(=O)N[C@H]3COc4cc(N5CC[C@H]6CNC[C@H]65)cc(F)c4C3)sc2n1 (single isomer, unassigned) .
**Result** 1 to 50 nM

**Query** IC50 for Cc1cnc2c(N)c(C(=O)N[C@H]3CCc4nc(N5CCNCC5)ccc4C3)sc2n1 ?
**Result** 50 to 200 nM

**Query** Suppose we examine the compound Cc1ccc2c(N)c(C(=O)N[C@H]3CCc4cc(N5CC6CNCC(C5)O6)c(C#N)cc4C3)sc2n1 ; what IC50 value has been reported?
**Result** 1 to 50 nM

---

Biological target: USP25 (USP25-His6, Boston Biochem E-546) (Homo sapiens)
Construct: His6; purchased Boston Biochem E-546
Sequence (Q9UHP3 1-1055): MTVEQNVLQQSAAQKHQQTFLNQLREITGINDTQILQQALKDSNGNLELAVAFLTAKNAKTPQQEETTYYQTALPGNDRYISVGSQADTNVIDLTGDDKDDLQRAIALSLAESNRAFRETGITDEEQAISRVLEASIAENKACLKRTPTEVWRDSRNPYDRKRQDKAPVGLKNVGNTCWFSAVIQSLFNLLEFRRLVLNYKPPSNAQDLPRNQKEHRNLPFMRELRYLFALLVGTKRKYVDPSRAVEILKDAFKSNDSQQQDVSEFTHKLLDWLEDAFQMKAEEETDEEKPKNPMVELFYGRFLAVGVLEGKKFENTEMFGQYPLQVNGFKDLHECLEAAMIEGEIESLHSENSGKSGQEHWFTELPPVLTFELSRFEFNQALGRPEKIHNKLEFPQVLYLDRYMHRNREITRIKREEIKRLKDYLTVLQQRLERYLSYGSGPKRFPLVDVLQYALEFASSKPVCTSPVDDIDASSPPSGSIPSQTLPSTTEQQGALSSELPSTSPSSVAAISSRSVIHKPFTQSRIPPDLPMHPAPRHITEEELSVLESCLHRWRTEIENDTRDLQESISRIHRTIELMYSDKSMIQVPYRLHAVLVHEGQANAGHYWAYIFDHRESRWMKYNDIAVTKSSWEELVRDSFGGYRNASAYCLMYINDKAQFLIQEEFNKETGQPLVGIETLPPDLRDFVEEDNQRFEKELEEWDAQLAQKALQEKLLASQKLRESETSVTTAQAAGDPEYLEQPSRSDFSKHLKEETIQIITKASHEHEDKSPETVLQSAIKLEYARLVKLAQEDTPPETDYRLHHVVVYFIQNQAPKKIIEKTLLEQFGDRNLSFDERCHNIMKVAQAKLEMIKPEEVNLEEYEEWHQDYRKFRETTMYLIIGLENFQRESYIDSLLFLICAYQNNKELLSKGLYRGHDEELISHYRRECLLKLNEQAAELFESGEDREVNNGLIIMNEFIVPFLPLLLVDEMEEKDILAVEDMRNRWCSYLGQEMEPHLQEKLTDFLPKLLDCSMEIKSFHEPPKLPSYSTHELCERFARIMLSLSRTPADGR
Experiment: Ubiquitin-Rhodamine 110 Assay for USP25 Activity, Example A-2
Format: biochemical
Conditions: Ubiquitin-Rhodamine 110 assay, Example A-2; read-out: USP25 A-2 IC50 range
endpoint.name: IC50

Completed entries (count: 2):
{"compound": "Cc1cnc2c(N)c(C(=O)N[C@H]3CCc4cc(N5CCNC[C@H](O)C5)ccc4C3)sc2n1 (single isomer, unassigned) [Example 7-6]", "tgt": "USP25 (USP25-His6, Boston Biochem E-546) (Homo sapiens)", "IC50": "> 2000 nM"}
{"compound": "Cc1cnc2c(N)c(C(=O)N[C@H]3CCc4cc(N5CC(C(=O)O)C5)ccc4C3)sc2n1 [Example 6-4]", "tgt": "USP25 (USP25-His6, Boston Biochem E-546) (Homo sapiens)", "IC50": "> 2000 nM"}

**Query** Request the reported IC50 associated with CCc1cnc2sc(C(=O)N[C@@H]3COc4cc(N5CCNCC5)ccc4C3)c(N)c2n1 [Example 37]
**Result** > 2000 nM

**Query** IC50 for CO[C@H]1CCN(c2ccc3c(c2)OC[C@H](NC(=O)c2sc4nc(C)cc(C)c4c2N)C3)C[C@@H]1N [Example 317] ?
**Result** 200 to 2000 nM

**Query** Would you mind telling me what IC50 value was observed for CN[C@H]1CN(c2ccc3c(c2)OC[C@H](NC(=O)c2sc4nc(C)ccc4c2N)C3)C[C@@H]1O [Example 350] ?
**Result** 200 to 2000 nM

**Query** For the compound shown here, Cc1cc(C)c2c(N)c(C(=O)N[C@H]3COc4cc(N5CC[C@@H]6CNC[C@@H]65)cc(F)c4C3)sc2n1 (single isomer, unassigned) [Example 223] , give the reported IC50.
**Result** 50 to 200 nM

**Query** Could you tell me which IC50 is on file for CO[C@H]1CN(c2ccc3c(n2)CC[C@H](NC(=O)c2sc4nc(C)cnc4c2N)C3)C[C@@H]1NC(C)=O [Example 266] ?
**Result** > 2000 nM
